B1: TPR t1 (parent)
chain: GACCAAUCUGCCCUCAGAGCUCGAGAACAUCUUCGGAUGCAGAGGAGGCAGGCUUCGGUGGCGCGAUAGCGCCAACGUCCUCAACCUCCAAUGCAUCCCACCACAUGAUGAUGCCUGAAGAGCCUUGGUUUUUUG

Variants of: B1
Test: polymerase ribozyme fitness, log enrichment relative to wild type (log ratio); higher = more active; in vitro selection for triplet polymerase activity
QUANTITY KIND: polymerase ribozyme fitness (log ratio)
// return just the number, without any unit appended

# polymerase ribozyme fitness (log ratio) lookup, item C11U C104U U126G
-2.39

Request the reported polymerase ribozyme fitness (log ratio) associated with A26G G71A C88G G120C
-2.52

Any idea what polymerase ribozyme fitness (log ratio) was measured for C11A G57U ?
-1.56

Requested field: polymerase ribozyme fitness (log ratio). Item: U59G G61A
-2.76

Can you look up the measured polymerase ribozyme fitness (log ratio) of U112A G128C for me?
-2.66

Bench note: what polymerase ribozyme fitness (log ratio) did U54C G57C U112C show?
1.77

Quick check: polymerase ribozyme fitness (log ratio) of C11G G44C C72G C88U C101U ?
-0.537

Which polymerase ribozyme fitness (log ratio) value belongs to C86G G120A ?
-0.356

Fill blank: measured polymerase ribozyme fitness (log ratio) of the variant A6C A43G U78G A91G is ____.
-2.53

What value of polymerase ribozyme fitness (log ratio) has been recorded for this entry: C15G G63U
-3.98

For the variant C40U G45U G127C , what polymerase ribozyme fitness (log ratio) is on record?
-3.96

Entry under review: G60A U130A . Reported polymerase ribozyme fitness (log ratio)?
-0.439

# query: polymerase ribozyme fitness (log ratio) of entry U112C G122A
0.065

GET /values?readout=polymerase ribozyme fitness (log ratio)&item= A46U A111C C124G U131A U132C
-0.582

Would you mind telling me what polymerase ribozyme fitness (log ratio) value was observed for A16U G93A ?
-2.35

What value of polymerase ribozyme fitness (log ratio) has been reported for the following variant? G48U U59A U116C C124U
-0.336

Quick one: polymerase ribozyme fitness (log ratio) of A37U G57A A66C ?
-4.07

Consider the variant shown here: A121U C124U What is its recorded polymerase ribozyme fitness (log ratio)?
2.15

Give the measured polymerase ribozyme fitness (log ratio) of G48C G69U .
-0.209

For the variant G19U G51A G60A G77C G113U , what polymerase ribozyme fitness (log ratio) is on record?
-6.6
